# experimental-target: T1, human Claudin18.2 (human)
# T1 construct: also called CLDN18.2
# assay-details: cell ELISA, Claudin18.2-expressing HEK293T cells
This section presents binders with their documented EC50 values.
Answer with a number only, understood to be in nM.

Guide cases for EC50, answers given:
binder	quantity-unit	EC50
262H9H6 (antibody, V domains shown, mouse hybridoma mAb) VH: QAYLQQSGAELVRSGASVKMSCKASGYTFTSHNMHWVKQTPGQGLEWIGYISPGNGYTNYNQKFRGKATLTADTSSSTAYMQISSLTSEDSAVYFCTRDYYGNSFTYWGQGTLVTVSA VL: DIVMTQSPSSLTEKAGERVSMSCKSSQSLFNSGNQKNYLTWYQQKPGQPPKLLIYWASTRESGVPDRFTGSGSGTEFTLTISSVQAEDLAVYYCQNNYWFPFTFGAGTKLELK	nM	0.879
394C2G5 (antibody, V domains shown, mouse hybridoma mAb) VH: DVQLVESGGGLVQPGGSRKLSCAASGFTFSGFGMHWIRQTPEKGLEWVAYVSSGSRPIYYADTVKGRFTISRDNPKNTLFLQMTSLRSEDTAMYFCARFYYGNSFDHWGQGTLVTVSA VL: DIVMTQSPSFLTVTAGEKVTMSCKSSQSLLNSGNQKNYLTWYQQKPGQPPKLLIYWASTRESGVPDRFTGSGSGTDFTLTINNVQAEDLALYYCQNAYSFPLTFGAGTKLELT	nM	2.81

Next:
What value of EC50 has been recorded for this entry: 252F1B10 (antibody, V domains shown, mouse hybridoma mAb) VH: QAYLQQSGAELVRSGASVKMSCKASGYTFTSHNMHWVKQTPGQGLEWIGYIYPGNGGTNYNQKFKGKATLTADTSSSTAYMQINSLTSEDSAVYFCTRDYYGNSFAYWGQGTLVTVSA VL: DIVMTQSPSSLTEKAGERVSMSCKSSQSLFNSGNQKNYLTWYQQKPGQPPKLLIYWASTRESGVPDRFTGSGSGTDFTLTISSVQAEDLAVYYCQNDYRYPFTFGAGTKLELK
0.53
